These data points were gathered from ChEMBL document CHEMBL4630907.

Target: Bromodomain and WD repeat-containing protein 1 (Homo sapiens, UniProt Q9NSI6)
Sequence (Q9NSI6 whole entry): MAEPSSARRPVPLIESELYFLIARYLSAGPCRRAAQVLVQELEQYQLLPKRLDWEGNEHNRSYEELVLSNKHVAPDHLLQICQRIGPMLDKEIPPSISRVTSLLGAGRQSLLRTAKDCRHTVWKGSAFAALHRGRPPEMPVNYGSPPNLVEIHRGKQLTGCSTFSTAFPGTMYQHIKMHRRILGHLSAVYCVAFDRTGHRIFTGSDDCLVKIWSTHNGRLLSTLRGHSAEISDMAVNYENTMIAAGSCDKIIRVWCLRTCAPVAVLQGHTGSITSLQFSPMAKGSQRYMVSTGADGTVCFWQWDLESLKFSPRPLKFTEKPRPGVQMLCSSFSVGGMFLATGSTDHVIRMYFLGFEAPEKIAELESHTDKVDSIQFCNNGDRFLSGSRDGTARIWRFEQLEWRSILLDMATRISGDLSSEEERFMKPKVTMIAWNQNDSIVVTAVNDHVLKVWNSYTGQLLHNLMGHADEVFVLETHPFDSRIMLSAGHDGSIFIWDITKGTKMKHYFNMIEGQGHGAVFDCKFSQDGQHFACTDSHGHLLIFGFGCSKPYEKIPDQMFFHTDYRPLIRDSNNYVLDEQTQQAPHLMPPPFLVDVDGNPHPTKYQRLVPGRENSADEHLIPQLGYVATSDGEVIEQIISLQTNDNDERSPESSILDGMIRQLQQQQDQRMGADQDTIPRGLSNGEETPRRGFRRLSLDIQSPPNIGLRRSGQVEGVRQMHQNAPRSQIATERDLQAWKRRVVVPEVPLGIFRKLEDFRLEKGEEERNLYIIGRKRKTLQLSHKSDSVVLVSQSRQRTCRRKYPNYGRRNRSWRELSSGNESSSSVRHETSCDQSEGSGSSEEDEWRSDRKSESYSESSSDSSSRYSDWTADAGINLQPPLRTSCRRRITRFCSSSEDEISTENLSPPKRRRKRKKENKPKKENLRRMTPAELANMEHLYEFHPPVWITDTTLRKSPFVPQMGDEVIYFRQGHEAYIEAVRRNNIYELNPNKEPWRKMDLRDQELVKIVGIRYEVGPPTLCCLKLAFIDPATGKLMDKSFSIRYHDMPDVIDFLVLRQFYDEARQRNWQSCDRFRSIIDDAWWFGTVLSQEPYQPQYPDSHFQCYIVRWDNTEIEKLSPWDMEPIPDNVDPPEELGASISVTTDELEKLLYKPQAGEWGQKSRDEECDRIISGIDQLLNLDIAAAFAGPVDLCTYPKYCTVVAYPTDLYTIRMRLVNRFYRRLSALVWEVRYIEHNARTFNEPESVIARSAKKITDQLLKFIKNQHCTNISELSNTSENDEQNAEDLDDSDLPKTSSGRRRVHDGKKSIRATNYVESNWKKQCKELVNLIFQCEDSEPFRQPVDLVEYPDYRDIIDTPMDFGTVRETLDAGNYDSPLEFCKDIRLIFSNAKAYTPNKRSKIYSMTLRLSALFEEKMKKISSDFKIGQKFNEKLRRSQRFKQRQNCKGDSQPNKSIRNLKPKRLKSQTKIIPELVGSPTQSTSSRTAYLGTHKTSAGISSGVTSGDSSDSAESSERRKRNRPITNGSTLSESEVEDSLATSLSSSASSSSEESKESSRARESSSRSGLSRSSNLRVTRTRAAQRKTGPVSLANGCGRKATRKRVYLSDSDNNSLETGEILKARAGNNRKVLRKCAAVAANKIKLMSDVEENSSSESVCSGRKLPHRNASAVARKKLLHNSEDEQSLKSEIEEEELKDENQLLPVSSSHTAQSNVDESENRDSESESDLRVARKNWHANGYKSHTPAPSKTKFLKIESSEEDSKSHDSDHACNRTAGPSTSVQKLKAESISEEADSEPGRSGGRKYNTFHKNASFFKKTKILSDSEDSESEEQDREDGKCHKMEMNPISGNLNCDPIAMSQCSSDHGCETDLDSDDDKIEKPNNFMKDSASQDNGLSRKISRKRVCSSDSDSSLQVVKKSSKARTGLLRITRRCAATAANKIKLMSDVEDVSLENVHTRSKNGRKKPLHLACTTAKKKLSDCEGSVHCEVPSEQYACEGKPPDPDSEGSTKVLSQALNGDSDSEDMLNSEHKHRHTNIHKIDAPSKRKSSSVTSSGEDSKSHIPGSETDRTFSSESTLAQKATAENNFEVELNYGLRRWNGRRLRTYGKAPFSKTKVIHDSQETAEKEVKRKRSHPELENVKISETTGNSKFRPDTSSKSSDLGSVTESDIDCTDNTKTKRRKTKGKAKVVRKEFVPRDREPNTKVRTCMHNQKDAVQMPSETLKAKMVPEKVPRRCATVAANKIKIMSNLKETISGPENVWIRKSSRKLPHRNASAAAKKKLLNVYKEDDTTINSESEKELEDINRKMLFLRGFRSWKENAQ
Assay: WDR9(2) DiscoverX BROMOscan
Observable: pKd
Hey, just a heads up that pKd is the negative log base 10 of the concentration in molar.

For COCc1nc2cnc3cc(-c4c(C)noc4C)c(OC[C@H]4CCNC4)cc3c2n1[C@H](C)c1ccccc1 , what is its reported pKd? 4.52

----------
Target: Transcription initiation factor TFIID subunit 1-like (Homo sapiens, UniProt Q8IZX4)
Sequence (Q8IZX4 whole entry): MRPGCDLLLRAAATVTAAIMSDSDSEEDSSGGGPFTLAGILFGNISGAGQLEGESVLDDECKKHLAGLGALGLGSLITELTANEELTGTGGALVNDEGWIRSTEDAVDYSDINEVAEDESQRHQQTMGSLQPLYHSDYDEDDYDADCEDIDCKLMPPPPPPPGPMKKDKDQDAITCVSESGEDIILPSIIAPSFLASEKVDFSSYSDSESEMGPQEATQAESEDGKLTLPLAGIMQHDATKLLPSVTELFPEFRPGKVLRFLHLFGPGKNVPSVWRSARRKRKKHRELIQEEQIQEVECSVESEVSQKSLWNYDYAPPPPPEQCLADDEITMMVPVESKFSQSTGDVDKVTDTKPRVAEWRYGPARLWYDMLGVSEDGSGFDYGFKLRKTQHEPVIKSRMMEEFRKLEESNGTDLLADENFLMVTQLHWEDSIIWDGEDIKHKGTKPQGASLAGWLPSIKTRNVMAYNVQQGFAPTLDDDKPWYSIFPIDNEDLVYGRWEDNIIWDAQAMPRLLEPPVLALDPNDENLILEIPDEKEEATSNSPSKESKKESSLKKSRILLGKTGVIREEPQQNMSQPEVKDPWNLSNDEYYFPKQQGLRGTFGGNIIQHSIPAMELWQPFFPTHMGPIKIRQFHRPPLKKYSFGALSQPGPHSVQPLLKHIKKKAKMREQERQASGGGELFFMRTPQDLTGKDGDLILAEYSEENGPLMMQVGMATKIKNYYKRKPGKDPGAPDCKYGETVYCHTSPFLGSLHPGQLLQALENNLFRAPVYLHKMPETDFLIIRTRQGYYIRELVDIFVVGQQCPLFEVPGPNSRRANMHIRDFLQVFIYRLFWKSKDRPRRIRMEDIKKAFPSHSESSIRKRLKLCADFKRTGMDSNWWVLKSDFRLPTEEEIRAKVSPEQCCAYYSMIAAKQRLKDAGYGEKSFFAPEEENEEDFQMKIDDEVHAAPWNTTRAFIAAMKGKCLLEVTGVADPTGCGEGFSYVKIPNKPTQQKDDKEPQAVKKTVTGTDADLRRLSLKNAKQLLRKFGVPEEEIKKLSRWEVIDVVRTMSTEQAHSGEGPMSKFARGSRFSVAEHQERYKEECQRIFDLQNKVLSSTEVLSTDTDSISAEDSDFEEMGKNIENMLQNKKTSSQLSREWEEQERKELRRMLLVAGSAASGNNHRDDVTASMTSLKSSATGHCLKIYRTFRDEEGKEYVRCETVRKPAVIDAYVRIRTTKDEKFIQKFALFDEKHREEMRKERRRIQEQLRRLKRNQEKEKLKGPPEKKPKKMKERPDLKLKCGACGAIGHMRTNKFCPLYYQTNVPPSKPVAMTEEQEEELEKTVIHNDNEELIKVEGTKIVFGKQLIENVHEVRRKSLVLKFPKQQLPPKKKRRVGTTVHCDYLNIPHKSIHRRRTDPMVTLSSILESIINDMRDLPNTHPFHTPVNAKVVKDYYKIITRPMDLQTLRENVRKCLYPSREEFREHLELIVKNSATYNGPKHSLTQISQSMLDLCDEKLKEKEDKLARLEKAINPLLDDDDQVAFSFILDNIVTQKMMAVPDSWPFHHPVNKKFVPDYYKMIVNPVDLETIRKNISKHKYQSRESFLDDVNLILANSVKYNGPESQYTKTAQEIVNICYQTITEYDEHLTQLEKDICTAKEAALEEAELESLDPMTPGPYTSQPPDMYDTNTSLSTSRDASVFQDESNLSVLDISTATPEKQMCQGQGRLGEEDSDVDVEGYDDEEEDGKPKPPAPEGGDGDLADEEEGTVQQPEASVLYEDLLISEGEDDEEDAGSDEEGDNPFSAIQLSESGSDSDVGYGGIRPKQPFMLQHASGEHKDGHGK
Assay: TAF1L(2) DiscoverX BROMOscan
Observable: pKd
pKd is defined as minus the log10 of a concentration measured in mol/L.

Param item = COCc1nc2cnc3cc(-c4c(C)noc4C)c(OC[C@H]4CCNC4)cc3c2n1[C@H](C)c1ccccc1 ; retrieve measured pKd. 4.52

----------
Target: Bromodomain-containing protein 1 (Homo sapiens, UniProt O95696)
Sequence (O95696 whole entry): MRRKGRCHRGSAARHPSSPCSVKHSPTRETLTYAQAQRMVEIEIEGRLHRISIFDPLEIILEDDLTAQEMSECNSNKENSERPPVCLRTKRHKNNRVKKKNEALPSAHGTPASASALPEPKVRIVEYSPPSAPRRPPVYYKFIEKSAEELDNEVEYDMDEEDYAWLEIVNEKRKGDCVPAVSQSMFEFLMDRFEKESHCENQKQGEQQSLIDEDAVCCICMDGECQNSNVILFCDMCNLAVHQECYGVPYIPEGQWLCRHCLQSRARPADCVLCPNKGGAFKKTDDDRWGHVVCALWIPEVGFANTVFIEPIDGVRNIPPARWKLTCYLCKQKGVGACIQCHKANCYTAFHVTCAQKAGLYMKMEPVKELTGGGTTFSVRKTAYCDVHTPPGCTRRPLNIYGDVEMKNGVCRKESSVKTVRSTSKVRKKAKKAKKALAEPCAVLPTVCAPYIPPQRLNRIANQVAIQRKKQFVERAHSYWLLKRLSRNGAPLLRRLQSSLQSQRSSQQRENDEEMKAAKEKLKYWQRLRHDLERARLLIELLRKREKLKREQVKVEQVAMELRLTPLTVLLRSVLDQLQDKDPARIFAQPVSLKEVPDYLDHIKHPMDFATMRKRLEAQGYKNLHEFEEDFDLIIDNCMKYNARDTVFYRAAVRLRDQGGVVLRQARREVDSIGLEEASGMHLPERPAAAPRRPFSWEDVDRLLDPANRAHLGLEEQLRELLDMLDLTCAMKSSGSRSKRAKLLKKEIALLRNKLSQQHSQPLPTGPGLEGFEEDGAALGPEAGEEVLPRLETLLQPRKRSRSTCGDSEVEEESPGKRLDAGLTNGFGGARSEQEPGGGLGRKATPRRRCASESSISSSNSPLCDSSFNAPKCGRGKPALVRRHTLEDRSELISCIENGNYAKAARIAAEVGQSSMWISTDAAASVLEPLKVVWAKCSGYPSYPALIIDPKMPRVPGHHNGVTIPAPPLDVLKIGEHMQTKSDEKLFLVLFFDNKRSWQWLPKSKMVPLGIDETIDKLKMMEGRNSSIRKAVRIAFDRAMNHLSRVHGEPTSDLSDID
Assay: BRD1 DiscoverX BROMOscan
Observable: pKd
Hey, just a heads up that pKd is the negative log base 10 of the concentration in molar.

I'd like to know its pKd. The compound in question is COCc1nc2cnc3cc(-c4c(C)noc4C)c(OC[C@H]4CCNC4)cc3c2n1[C@H](C)c1ccccc1 4.52
